Readings of Zone of inhibition for the listed compounds
Test system: Staphylococcus aureus
Assay: Antimicrobial activity of the compound against Staphylococcus aureus was determined
Format: functional
// return numeric value only (unit: mm, not printed)

Study these solved cases before continuing.
SMILES CODE: CSc1sc(-c2nnc(SC)n2-c2ccc([N+](=O)[O-])cc2)c2c1C(=O)CCC2
UOM: mm
Zone of inhibition: 18
--
SMILES CODE: CCCCn1c(SC)nnc1-c1sc(SC)c2c1CCCC2=O
UOM: mm
Zone of inhibition: 17
--
SMILES CODE: CSc1sc(-c2nnc(S)n2-c2ccc([N+](=O)[O-])cc2)c2c1C(=O)CCC2
UOM: mm
Zone of inhibition: 18
--
SMILES CODE: CCCCn1c(S)nnc1-c1sc(SC)c2c1CCCC2=O
UOM: mm
Zone of inhibition: 17

Lookup: If you can, please state the reported Zone of inhibition value of O=C1CN(/N=C/c2ccc([N+](=O)[O-])o2)C(=O)N1 .
Found: 21

###

Readings of Zone of inhibition for the listed compounds
System: Bacillus subtilis
Assay: Antimicrobial activity of the compound against Bacillus subtilis was determined
Type: functional
// return numeric value only (unit: mm, not printed)

Study these solved cases before continuing.
SMILES CODE: CCNc1nnc(-c2sc(SC)c3c2CCCC3=O)s1
TARGET ENTITY: Bacillus subtilis
Zone of inhibition (mm): 20
--
SMILES CODE: CCCCNc1nnc(-c2sc(SC)c3c2CCCC3=O)s1
TARGET ENTITY: Bacillus subtilis
Zone of inhibition (mm): 22
--
SMILES CODE: CSc1sc(-c2nnc(Nc3ccc([N+](=O)[O-])cc3)s2)c2c1C(=O)CCC2
TARGET ENTITY: Bacillus subtilis
Zone of inhibition (mm): 33

Lookup: If you can, please state the reported Zone of inhibition value of CCCCn1c(S)nnc1-c1sc(SC)c2c1CCCC2=O .
Found: 14

Lookup: If you can, please state the reported Zone of inhibition value of COc1ccc(-n2c(S)nnc2-c2sc(SC)c3c2CCCC3=O)cc1 .
Found: 11

Lookup: If you can, please state the reported Zone of inhibition value of O=C1CN(/N=C/c2ccc([N+](=O)[O-])o2)C(=O)N1 .
Found: 18

Lookup: If you can, please state the reported Zone of inhibition value of CSc1sc(-c2nnc(SC)n2-c2ccc([N+](=O)[O-])cc2)c2c1C(=O)CCC2 .
Found: 21

Lookup: If you can, please state the reported Zone of inhibition value of CCCCn1c(SC)nnc1-c1sc(SC)c2c1CCCC2=O .
Found: 16

Lookup: If you can, please state the reported Zone of inhibition value of CSc1sc(-c2nnc(S)n2-c2ccc([N+](=O)[O-])cc2)c2c1C(=O)CCC2 .
Found: 23

Lookup: If you can, please state the reported Zone of inhibition value of CNc1nnc(-c2sc(SC)c3c2CCCC3=O)s1 .
Found: 28

###

Readings of Zone of inhibition for the listed compounds
System: Candida albicans
Assay: Antimicrobial activity against Candida albicans was determined
Format: functional
// return numeric value only (unit: mm, not printed)

Lookup: If you can, please state the reported Zone of inhibition value of C[C@@H]1[C@H](O)[C@@H](C)/C=C/C=C/C=C/C=C/C=C/C=C/C=C/[C@H](O[C@@H]2O[C@H](C)[C@@H](O)[C@H](N)[C@@H]2O)C[C@@H]2O[C@](O)(C[C@@H](O)C[C@@H](O)[C@H](O)CC[C@@H](O)C[C@@H](O)CC(=O)O[C@H]1C)C[C@H](O)[C@H]2C(=O)O .
Found: 22
